These measurements were taken from patent US20250114374A1.

# Tested on: RS4; 11 with G101V mutation
# assay procedure: In vitro anti-proliferation assay (ATPlite luminescence) in BCL-2-dependent ALL cell line RS4;11 with G101V mutation
# Format: cell-based
# condition parameters: cellular anti-proliferative IC50, about 72 hours, medium with 10% FBS, ATPlite; read-out: RS411-G101V IC50
pIC50: −log10 of the molar value.
Values of pIC50 greater than or equal to 8 map to 1.0; values below map to 0.0.

The examples below pair each entry with its known result.
COc1cc(CN2CCN(C3CC4(CCN(c5ccc(C(=O)NS(=O)(=O)c6cc7c(c([N+](=O)[O-])c6)N[C@H](C6CCOCC6)CO7)c(N6c7cc8cc[nH]c8nc7O[C@H]7COCC[C@@H]76)c5)CC4)C3)[C@H](c3ccccc3C)C2)cnc1N1CCOC[C@@H]1C
1.0
Cc1ccccc1[C@@H]1CN(Cc2ccc(F)c(F)c2)CCN1C1CC2(CCN(c3ccc(C(=O)NS(=O)(=O)c4ccc(NCC5CCC(C)(O)CC5)c([N+](=O)[O-])c4)c(N4c5cc6cc[nH]c6nc5O[C@H]5COCC[C@@H]54)c3)CC2)C1 (some centres unmarked)
0.0
CC(C)Oc1ccccc1[C@H]1CN(C2CCN(C3CCOCC3)CC2)CCN1C1CC2(CCN(c3ccc(C(=O)NS(=O)(=O)c4ccc(NC[C@H]5CC[C@](C)(O)CC5)c([N+](=O)[O-])c4)c(N4c5cc6cc[nH]c6nc5O[C@H]5COCC[C@@H]54)c3)CC2)C1
0.0
COc1cc(CN2CCN(C3CC4(CCN(c5ccc(C(=O)NS(=O)(=O)c6ccc(NCC7CCOCC7)c([N+](=O)[O-])c6)c(N6c7cc8cc[nH]c8nc7O[C@H]7COCC[C@@H]76)c5)CC4)C3)[C@@H](c3ccccc3OC(C)C)C2)cnc1N1CCOCC1 [Example 131]
0.0
COc1cc(CN2CCN(C3CC4(CCN(c5ccc(C(=O)NS(=O)(=O)c6ccc(NCC7CCC(C)(O)CC7)c([N+](=O)[O-])c6)c(N6c7cc8cc[nH]c8nc7O[C@H]7COCC[C@@H]76)c5)CC4)C3)[C@H](c3ccccc3C)C2)cnc1OC (some centres unmarked)
1.0

Lab note: next compound to report on.
Item COc1cc(CN2CCN([C@@H]3CC4(CCN(c5ccc(C(=O)NS(=O)(=O)c6ccc(NCC7CCC(C)(O)CC7)c([N+](=O)[O-])c6)c(N6c7cc8cc[nH]c8nc7O[C@H]7COCC[C@@H]76)c5)CC4)[C@@H]3C)[C@@H](c3ccccc3OC(C)C)C2)cnc1N1CCOCC1 (some centres unmarked) with pIC50 of 8 or above? 0.0
